Target: T1, rat insulin receptor (INSR) on CHOK1 cells (rat, UniProt P15127 27-1383)
T1 construct: whole, on cells; CHOK1 cells over-expressing rat INSR; also called rat INSR ortholog
Assay: flow cytometry on CHOK1 cells expressing the INSR ortholog; IgG, anti-human IgG APC detection
Quick list: EC50 per entry.
Give the value in nM but do not write nM after it.

* XPA.15.247 parent antibody (IgG) (antibody, V domains shown, Tested as IgG; also called XPA.15.247 antibody) VH: EVQLVETGGGVVQPGRSLRLSCAASGFTFSSYAMHWVRQAPGKGLEWVAVISYDGSNKYYADSVKGRFTISRDNSKNTLYLQMNSLRAEDTAVYYCARHEWGFGMDVWGQGTTVTVSS VL: DVVMTQSPLSLSVTLGQPASISCRSSLSLVYGDENTYLNWFQQRPGQSPRRLLYKVSDRDSGVPDRFSGSGSGTDFTLKISRVEADDVGVYYCMQGTHWPYTFGQGTKLEIKR | 9.7

Item: XPA.15.247.2.018 IgG (antibody, V domains shown, Tested as IgG; also called XPA.15.247.2.018 antibody) VH: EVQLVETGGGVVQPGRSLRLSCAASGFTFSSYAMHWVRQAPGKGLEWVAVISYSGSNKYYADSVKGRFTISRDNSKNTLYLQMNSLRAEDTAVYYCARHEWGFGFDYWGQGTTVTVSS VL: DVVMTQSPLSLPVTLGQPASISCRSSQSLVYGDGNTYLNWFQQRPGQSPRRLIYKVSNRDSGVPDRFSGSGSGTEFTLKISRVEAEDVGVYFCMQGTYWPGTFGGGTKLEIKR | EC50: 0.4

Item: XPA.15.247.2.011 IgG (antibody, V domains shown, Tested as IgG; also called XPA.15.247.011) VH: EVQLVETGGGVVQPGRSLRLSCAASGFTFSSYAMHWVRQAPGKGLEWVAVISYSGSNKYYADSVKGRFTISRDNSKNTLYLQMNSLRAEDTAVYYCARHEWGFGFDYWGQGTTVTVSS VL: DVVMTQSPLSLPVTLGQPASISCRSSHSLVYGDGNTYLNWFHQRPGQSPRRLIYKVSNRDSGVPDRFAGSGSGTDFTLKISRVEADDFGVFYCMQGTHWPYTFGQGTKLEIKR | EC50: 1.3

Item: XPA.15.247.2.014 IgG (antibody, V domains shown, Tested as IgG; also called XPA.15.247.014) VH: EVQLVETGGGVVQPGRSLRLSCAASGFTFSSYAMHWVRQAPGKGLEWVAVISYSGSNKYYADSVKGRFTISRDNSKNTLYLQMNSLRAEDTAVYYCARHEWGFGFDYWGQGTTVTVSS VL: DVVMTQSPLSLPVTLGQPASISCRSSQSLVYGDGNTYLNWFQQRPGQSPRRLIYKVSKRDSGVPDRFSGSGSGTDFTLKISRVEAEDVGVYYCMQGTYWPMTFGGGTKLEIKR | EC50: 0.7
